We begin with a simple list: items and their reported Locomotor activity.
# System: Mus musculus
# test: Antagonism of apomorphine in reserpinized mice when a dose of 36 micro mol/kg is administered intraperitoneally
# Format: functional
Lab note: record just the number, no unit beside it.

- C=CCN1CC[C@@H]2c3cccc(OC)c3CC[C@H]21 (racemic): 13
- C=CCN1CC[C@H]2c3c(cccc3OC)CC[C@H]21 (racemic): 4
- C=CCN1CC[C@H]2c3cccc(OC)c3CC[C@H]21: 21
- C=CCN1CCC2c3c(cccc3OC)CC[C@H]21 (single isomer, unassigned; (-)): 11
- C=CCN1CCC2c3cccc(OC)c3CC[C@H]21 (mixture of isomers): 1
- C=CCN1CCC2c3c(cccc3OC)CC[C@@H]21 (single isomer, unassigned; (+)): 115

Locomotor activity for C=CCN1CC[C@@H]2c3c(cccc3OC)CC[C@H]21 (racemic) is 5

----------
# Tested on: Mus musculus
# test: Maximum decrease in temperature when compound is administered subcutaneously
# Assay type: functional
We begin with a simple list: items and their reported Max temperature decrease.
Lab note: record just the number, no unit beside it.

A selection of reference data follows.
• CCCN1[C@H](C)CC2c3c(cccc3OC)CC[C@H]21 (mixture of isomers) = 5.2
• C=CCN1CC[C@@H]2c3cccc(OC)c3CC[C@H]21 (racemic) = 3.4
• CCCN1CC[C@H]2c3c(O)cccc3CC[C@H]21 = 5.5

Max temperature decrease for C=CCN1CC[C@H]2c3c(cccc3OC)CC[C@H]21 (racemic) is 4.2

----------
We begin with a simple list: items and their reported Locomotor activity.
# Tested on: Mus musculus
# test: Antagonism of apomorphine effects for 10-20 minutes in reserpinized mice following 0.4 umol/kg i.p.
# Assay type: functional
Lab note: record just the number, no unit beside it.

* C=CCN1CC[C@H]2c3c(O)cccc3CC[C@H]21 (racemic) | 62

Locomotor activity for C=CCN1CC[C@@H]2c3c(cccc3OC)CC[C@H]21 (racemic) is 65

Locomotor activity for C=CCN1CC[C@@H]2c3cccc(O)c3CC[C@H]21 (racemic) is 83

Locomotor activity for C=CCN1CCC2c3c(cccc3OC)CC[C@H]21 (single isomer, unassigned; (-)) is 45

Locomotor activity for C=CCN1CCC2c3cccc(O)c3CC[C@@H]21 (single isomer, unassigned; (+)) is 76

Locomotor activity for C=CCN1CC[C@H]2c3c(cccc3OC)CC[C@H]21 (racemic) is 94

----------
# target.system: D(2) dopamine receptor (Rattus norvegicus, UniProt P61169)
# Sequence (P61169 whole entry): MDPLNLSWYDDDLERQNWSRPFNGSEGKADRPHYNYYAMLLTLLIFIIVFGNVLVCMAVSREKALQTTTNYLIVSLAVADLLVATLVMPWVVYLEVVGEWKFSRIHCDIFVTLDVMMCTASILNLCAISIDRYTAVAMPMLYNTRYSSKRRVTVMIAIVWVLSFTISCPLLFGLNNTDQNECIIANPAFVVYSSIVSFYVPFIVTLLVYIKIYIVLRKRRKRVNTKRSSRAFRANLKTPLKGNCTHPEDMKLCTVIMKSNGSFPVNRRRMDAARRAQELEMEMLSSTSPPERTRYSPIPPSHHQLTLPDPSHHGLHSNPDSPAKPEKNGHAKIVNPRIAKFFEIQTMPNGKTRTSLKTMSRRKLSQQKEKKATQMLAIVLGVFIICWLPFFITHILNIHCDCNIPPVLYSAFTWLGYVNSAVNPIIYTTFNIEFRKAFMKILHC
# test: Inhibition concentration against [3H]raclopride-labeled dopamine receptor D2 in rat striatum was estimated by single point experiment. compound was run at 1 uM
# Format: tissue-based
pKi: −log10 of the molar value.
quantity.kind: pKi

pKi for C=CCN1CC[C@@H]2c3ccccc3CC[C@H]21 (racemic) is < 6.00

----------
# Tested on: Mus musculus
# test: Antagonism of apomorphine for 10-20 minutes in reserpinized mice when a dose of 36 micro mol/kg is administered intraperitoneally
# Assay type: functional
quantity.kind: Locomotor activity
Lab note: record just the number, no unit beside it.

A selection of reference data follows.
- C=CCN1CC[C@@H]2c3cccc(OC)c3CC[C@H]21 (racemic): 54
- C=CCN1CC[C@H]2c3cccc(OC)c3CC[C@H]21: 38
- C=CCN1CCC2c3c(cccc3OC)CC[C@H]21 (single isomer, unassigned; (-)): 18

Locomotor activity for C=CCN1CCC2c3cccc(OC)c3CC[C@H]21 (mixture of isomers) is 17

Locomotor activity for C=CCN1CCC2c3c(cccc3OC)CC[C@@H]21 (single isomer, unassigned; (+)) is 67

Locomotor activity for C=CCN1CC[C@@H]2c3c(cccc3OC)CC[C@H]21 (racemic) is 32

Locomotor activity for C=CCN1CC[C@H]2c3c(cccc3OC)CC[C@H]21 (racemic) is 45

The values you see were collected from ChEMBL document CHEMBL1127015.
